assayExplanation: yeast display, Sf9 membrane polyspecificity reagent, FACS + sequencing; frameworks hold sequencing errors

residues	polyreactivity (PSR sort gate)
QVQLVESGGGLVQAGGSLRLSCAASGSTFDINVMGWYRQAPGKERELVAAITWSGGRTYYADSVKGRFTISRDNAKNTVYLQMNSLKPEDTAVYYCAARVGRGVYRYVPREFDYWGQGTQVTVSS	high polyreactivity
QVQLVESGGGLVQAGGSLRLSCAASGLIFPRYAMGWYRQAPGKERELVAAISSGGSTNYADSVKGRFTISRDNAKNTVYLQMNSLKPEDTAVYYCAASSYYYRFSRWPYYHRYYWGQGTQVTVSS	low polyreactivity
QVQLVESGGGLVQAGGGLRLSSAASGTFKRNAVGWYRQAPGKERELVATITRTGSTTYADSVKGRFTISRDNAMNTVYLQMNSLKPEDTAVYYCAAGYPPEDPEDYWGQGTQVTVSS	low polyreactivity
QVQLVESGGGLVQAGGSLRLSCAASRSIFVPYAMGWYRQAPGKERELVAVITSGGSTYYADSVKGRFTISRDNAKNTVYLQMNSLKPEDTAVYYCNADLYYVWSTLSQFDYWGQGTQVTVSS	low polyreactivity
QVQLVESGRGLFQAGGSLRISCAASGSTYQFYAMGWYRQAPGIERELVASIRVRSGTTYYADSVKGRFTISRDNAKNTVYLQMNSLKPEDTAVYYCASGRPYYGRKYDYWGQGTQVTVSS	high polyreactivity

---

assayExplanation: yeast display, Sf9 membrane polyspecificity reagent, FACS + sequencing; frameworks hold sequencing errors

residues	polyreactivity (PSR sort gate)
QVQLVESGGGLVQAGGSLRLSCAASGFTFGPYDMGWYRQAPGKERELVAAITDSSGSTHYADSVKGRFTISRDNAKNTVYLQMNSLKPEDTAVYYCAAVVYYTFDYWGQGTQVTVSS	low polyreactivity
QVQLVESGGGLVQAGGSLRLSCAASGFTFKAYAMGWYRQAPGKERELVAAISNSGGTTYYADSVKGRFTISRDNAKNTVYLQMNSLKPEDTAVYYCAAYQYYIPKMYYWGQGTQVTVSS	high polyreactivity
QVQLVESGGGLVQAGGSLRLSCAASGFTFGYYAMGWYRQAPGKERELVAAINWSGGRTYYADSVKGRFTISRDNAMNTVYLQMNRLKPEDTAVYYCAASSRTKRYYWGQGTQVTVSS	high polyreactivity
QVQLVESGGGLVQAGGSLRLSCAATGRILYYYAMVWYRQAPGKEREVVAASTSGGSTYADSVKGRFTISRDNAKNTVYLQMNSQKPEDTAVYYCNADSTVYDTEYAYWGQGTQVTVSS	low polyreactivity
QVQLVESGGGLVQAGGSLRLSCAASGRTSSTYDMGWYRQAPGKERELVADITWSGGSTYYADSVKGRFTISRDNAKNTVYLQMNRLKPEDTAVYYCAAPFVKFVGSLVYAGYDSWGQGTQVTVSS	low polyreactivity
QVQLVESGGGLVQAGGSLRLICAASGTISSLNTMGWYRQAPVKERELVASITWSGGSTYADSVKGRFTISRDNAKNTVYLQMNSLKPEDTAVYYCAKGVWFSRRRYGYWGQGTQVTVSS	high polyreactivity
QVHLVESGGGLVQAGGSLRLSCAASGRTFIKYAMGWYIQAPGKERELVAAISVSGGRTYYADSVKGRFTISRDKAKNTVYLQMNSLKPEDTAVYYCNKVRVGSLRGYWGQGTQVTVSS	high polyreactivity
QVQLVESGGGLVQAGGSLRLSCAASGRIFDSYAMGWYRQAPGKERELVAVISNNDGTTYYADSVKGRFTISRDNAKKTFYLQMNSLKPEDTAVYYCAAEEPLFGYLWYVVTYAGFYDYWGQGTQVTVSS	low polyreactivity
QVQLVESGGGLVQAGGSLRLSCAASGSIFGFKVMGWYRQEPGKERELVAAITYSGGSTYYADSVKGRFTISRANAKNTVYIQMNSLKPEDTAVYYCAADTFTPYWWYSSLDEYWGQGTQVTVSS	high polyreactivity
QVQLVESGGGLVQAGGSLRLSCAASGTIFVPYAMGWYRQAPGKERELVAVITSGGSTYYADSVKGRFTISRDNAKNTVYLQMNSLNPEDTAVYYCIADLYYVWSTLSQFDYWGQGTHVTVSS	low polyreactivity
QVQLVESGGGLVQAGGSLRLSSAASGSNFPPNAMGWYRQAPGKEREFVASITSSGGITNYADSVKGRFTISRDNAKNTVYLQMNSLKPEDTAVYYCAAKYYGGTRFRPYGYWGQGTQVTVSS	high polyreactivity

Ref: the nanobody polyreactivity screen of Harvey et al. (2022)
